Tested on: KRAS patient-derived spheroids with HUVEC/MSC, viability
Test: Anticancer human tumor 323965-272-R-J2-PDC patient-derived pancreatic carcinoma cell line growth inhibition [KRAS2]
Conditions: second compound 0.1 µM; first compound 1 µM; active compounds read low
Listing: viability, T/C of selected compounds
property_name: viability, T/C (%)

INSERT INTO assay_data (compound, reading_unit, value_reported) VALUES
  ('CC(C)NCC(C(=O)N1CCN(c2ncnc3c2C(C)CC3O)CC1)c1ccc(Cl)cc1 (centres undefined) + COc1cc2nc(C)nc(NC(C)c3cc(N)cc(C(F)(F)F)c3)c2cc1OC1CCOC1', '%', 45.4),
  ('CC1(C)CCC(CN2CCN(c3ccc(C(=O)NS(=O)(=O)c4ccc(NCC5CCOCC5)c([N+](=O)[O-])c4)c(Oc4cnc5[nH]ccc5c4)c3)CC2)=C(c2ccc(Cl)cc2)C1 + CNCc1ccccc1-c1csc(C(C)Nc2nc(C)nc3cc(OC)c(OC)cc23)c1', '%', 87.8),
  ('CC1(C)CCC(CN2CCN(c3ccc(C(=O)NS(=O)(=O)c4ccc(NCC5CCOCC5)c([N+](=O)[O-])c4)c(Oc4cnc5[nH]ccc5c4)c3)CC2)=C(c2ccc(Cl)cc2)C1 + C=CC(=O)N1CCN(c2nc(OCC3CCCN3C)nc3c2CCN(c2cccc4cccc(C)c24)C3)CC1CC#N', '%', 67.6),
  ('CC(=O)OC12COC1CC(O)C1(C)C(=O)C(O)C3=C(C)C(OC(=O)C(O)C(NC(=O)OC(C)(C)C)c4ccccc4)CC(O)(C(OC(=O)c4ccccc4)C21)C3(C)C (centres undefined) + C=CC(=O)N1CCN(c2nc(=O)n(-c3c(C)ccnc3C(C)C)c3nc(-c4c(O)cccc4F)c(F)cc23)C(C)C1', '%', 18.9);

----------
Listing: viability, T/C of selected compounds
System: KRAS patient-derived spheroids with HUVEC/MSC, viability
Experiment: Anticancer human tumor 323965-272-R-J2-PDC cell line growth inhibition [KRAS2];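 further: spheroids exposed to agents for 7 days; 100% = DMSO vehicle control viability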
Details: second compound 0.1 µM; first compound 1 µM; active compounds read low
property_name: viability, T/C (%)

INSERT INTO measurements (compound, value_reported) VALUES
  ('O=C(c1cc(Cc2n[nH]c(=O)c3ccccc23)ccc1F)N1CCN(C(=O)C2CC2)CC1 + C=CC(=O)N1CCN(c2nc(OCC3CCCN3C)nc3c2CCN(c2cccc4cccc(C)c24)C3)CC1CC#N', 60.4),
  ('Cn1nccc1Nc1nccc(-c2cc3c(s2)C(C)(C)N(CCN2CCOCC2)C3=O)n1 + C=CC(=O)N1CCN(c2nc(OCC3CCCN3C)nc3c2CCN(c2cccc4cccc(C)c24)C3)CC1CC#N', 36.4),
  ('COC(=O)c1ccc2c(C(=Nc3ccc(N(C)C(=O)CN4CCN(C)CC4)cc3)c3ccccc3)c(O)[nH]c2c1 + CC1OCC2(CCN(c3cnc(Sc4ccnc(N)c4Cl)c(N)n3)CC2)C1N', 76.3),
  ('CC1(C)CCC(CN2CCN(c3ccc(C(=O)NS(=O)(=O)c4ccc(NCC5CCOCC5)c([N+](=O)[O-])c4)c(Oc4cnc5[nH]ccc5c4)c3)CC2)=C(c2ccc(Cl)cc2)C1 + COc1cc2nc(C)nc(NC(C)c3cc(N)cc(C(F)(F)F)c3)c2cc1OC1CCOC1', 72.2),
  ('CC(C)NCC(C(=O)N1CCN(c2ncnc3c2C(C)CC3O)CC1)c1ccc(Cl)cc1 (stereo not given) + C=CC(=O)N1CCN(c2nc(OCC3CCCN3C)nc3c2CCN(c2cccc4cccc(C)c24)C3)CC1CC#N', 39.2);
